// reported melting point per item
Structures can show the parent of a compound that is named as a salt.
MEASUREMENT TYPE: melting point

[
  {
    "COMPOUND": "N=C(N)c1ccc(-c2cc(-c3ccccc3)on2)cc1 (as salt: hydrochloride)",
    "READOUT VALUE": "287 to 292 °C"
  },
  {
    "COMPOUND": "CC(C)NC(=N)c1cccc(-c2cc(-c3cccc(C(=N)NC(C)C)c3)on2)c1.Cl.Cl",
    "READOUT VALUE": "260 °C (dec.)"
  },
  {
    "COMPOUND": "Cl.Cl.N=C(N)c1cccc(-c2cc(-c3ccc(C(=N)N)cc3[N+](=O)[O-])no2)c1",
    "READOUT VALUE": "236 °C (dec.)"
  },
  {
    "COMPOUND": "CC(C)NC(=N)c1ccc(-c2cc(-c3cccc(C(=N)NC(C)C)c3)no2)cc1.Cl.Cl",
    "READOUT VALUE": "> 350 °C"
  },
  {
    "COMPOUND": "Cl.Cl.N=C(N)c1ccc(-c2cc(-c3cccc(C(=N)N)c3)on2)cc1",
    "READOUT VALUE": "336 to 338 °C"
  },
  {
    "COMPOUND": "COc1ccc(C(=N)N)cc1-c1cc(-c2ccc(C(=N)N)cc2[N+](=O)[O-])no1.Cl.Cl",
    "READOUT VALUE": "260 °C (dec.)"
  },
  {
    "COMPOUND": "Cl.Cl.N=C(N)c1ccc(-c2cc(-c3ccc(C(=N)N)cc3[N+](=O)[O-])no2)cc1",
    "READOUT VALUE": "350 °C (dec.)"
  }
]

Provenance of the data: patent US7951827B2
